system tested: 38B7 human IgE mAb (human)
Sequence (heavy, as listed by the source, chain 1 of 2): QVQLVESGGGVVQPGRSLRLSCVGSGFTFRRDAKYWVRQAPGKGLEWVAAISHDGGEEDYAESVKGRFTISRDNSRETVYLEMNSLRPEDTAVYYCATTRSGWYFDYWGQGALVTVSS
Sequence (light, as listed by the source, chain 2 of 2): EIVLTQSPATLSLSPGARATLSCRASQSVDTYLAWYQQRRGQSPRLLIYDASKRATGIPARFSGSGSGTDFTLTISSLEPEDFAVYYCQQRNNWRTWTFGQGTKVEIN
test protocol: SPR; Carterra LSA; antibody as ligand, allergen or peptide as analyte; how the antibody was held for these pairs is not told
pKd: −log10 of the molar value. Square brackets hold non-standard residues; d marks the D form. Ends that are not written are not given here. Hyp = O=C(O)[C@@H]1C[C@@H](O)CN1
observable: pKd

I = EDSYERDPYSPSQD [nonhydroxylated DPYSPS containing peptide (…)]
II = EDSYERDPYS[Hyp]SQD [hydroxylated DPYSPS containing peptide (…^OHSQD)]
Returns the identifier with the smallest measured pKd among I and II . Refer to your chosen entry by its label in the reply.
I
(I: 5.15, II: 7.70)
